- experimental.target: UniProt:Q6SZW1
- Sequence (Q6SZW1 28-724): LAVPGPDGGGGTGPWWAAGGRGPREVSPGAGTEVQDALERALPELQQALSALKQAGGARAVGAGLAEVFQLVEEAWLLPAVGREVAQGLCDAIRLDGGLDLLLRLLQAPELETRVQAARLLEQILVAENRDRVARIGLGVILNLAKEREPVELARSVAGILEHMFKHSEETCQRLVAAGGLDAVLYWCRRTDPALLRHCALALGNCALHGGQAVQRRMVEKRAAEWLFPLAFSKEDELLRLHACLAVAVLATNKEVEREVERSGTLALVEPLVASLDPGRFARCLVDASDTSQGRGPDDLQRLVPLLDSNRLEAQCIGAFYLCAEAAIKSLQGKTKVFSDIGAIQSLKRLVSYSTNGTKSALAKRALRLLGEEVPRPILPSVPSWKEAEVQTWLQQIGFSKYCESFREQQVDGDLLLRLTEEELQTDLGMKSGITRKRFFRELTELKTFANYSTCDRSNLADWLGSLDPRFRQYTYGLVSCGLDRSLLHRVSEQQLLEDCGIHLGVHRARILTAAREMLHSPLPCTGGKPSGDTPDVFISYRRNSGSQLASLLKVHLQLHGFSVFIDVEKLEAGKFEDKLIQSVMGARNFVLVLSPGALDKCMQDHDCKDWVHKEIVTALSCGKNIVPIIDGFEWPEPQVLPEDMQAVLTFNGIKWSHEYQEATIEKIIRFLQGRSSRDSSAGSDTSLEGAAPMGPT
- experiment.description: FL-SARM1 cellular lysate assay (NAD/NADH-Glo detection of remaining NAD+, NMN-activated)
- experimental.context: Activity (μM) (IC50), 11 point curve
Classify: condition met when IC50 is strictly less than 2 µM; condition not met when IC50 is not.

C[C@@H]1CC2C[C@H](C1)N2C(=O)Nc1ccc(Cl)c(-c2cccnn2)c1: condition met
Cc1ccc(NC(=O)[C@@H]2C[C@@H]2c2ccccc2)cc1-c1cccnn1: condition not met
Cc1ccc(NC(=O)N2C3C[C@H](C#N)C[C@@H]2C3)cc1-c1ccccn1: condition met
Cc1cc(NC(=O)N2C3CCCC2C3)cc(-c2ccccn2)c1C: condition not met
CCO[C@H]1CC2C[C@H](C1)N2C(=O)Nc1ccc(C)c(-c2ccccn2)c1: condition not met

Query block: Find out if reported IC50 for C[C@@H]1C[C@@H]2C[C@H](C1)N2C(=O)Nc1ccc(C#N)c(-c2ccccn2)c1 is less than 2 µM
Result block: condition met

Query block: Proceed to Cc1ccc(NC(=O)N2C3CC2CN(CC(F)F)C3)cc1-c1ccccn1
Result block: condition met

Query block: // next record Cc1ccc(NC(=O)[C@@H]2C[C@@H]2c2ccccn2)cc1-c1cccnn1
Result block: condition not met
